# Tested on: E. coli assay strain Km3
# Type: cell-based
# TEST PARAMETERS: library L8 hits; M9 Xgal colony assay; ratio IND (200 ppb Cs, 24 hrs) / REP (48 hrs)
MEASURE NAME: F. IND = fold induction: induction with 200 ppb Cs at 24 hrs/repression at 48 hrs

MOLECULE	REPORTED VALUE
L8-1E04 (protein, Sulfonylurea responsive repressor) MARLDKSKVINSALELLNEVGIEGLTTRKLAQKLGVEQPTLYWHVKNKRALLDALAIEMMDRHQTHYLPLEGESWQDFLRNNAKSCRNALLSHRDGAKVCLGTRWTEQQYESAENMLAFLTQQGFSLENALYAVSAVRVFTLGAVLYDQESQVAKEERETPTTDSMPPLLRQAWELKDHQGAEPAFLFGLELIIRGLEKQLKAESGS	2.5
L8-3D03 (protein, Sulfonylurea responsive repressor) MARLDKSKVINSALELLNEVGIEGLTTRKLAQKLGVEQPTLYWHVKNKRALLDALAIEMMDRHQTHYLPLEGESWQDFLRNNAKSCRNALLSHRDGAKVCLGTRWTEQQYESAENMLAFLTQQGFSLENALYALDAVRVFTLGAVLFDQESQVAKEERETPTTDSMPPLLRQAWELKDHQGAEPAFLFGLELIIRGLEKQLKSESGS	4.9
L8-3B03 (protein, Sulfonylurea responsive repressor) MARLDKSKVINSALELLNEVGIEGLTTRKLAQKLGVEQPTLYWHVKNKRALLDALAIEMMDRHQTHYLPLEGESWQDFLRNNAKSCRRALLSHRDGAKVCLGTRWTEQQYESAENMLAFLTQQGFSLENALYAVSAVRVFTLGAVLFDQESQVAKEERETPTTDSMPPLLRQAWELKDHQGAEPAFLFGLELIIRGLEKQLKSESGS	2.4
L8-1A06 (protein, Sulfonylurea responsive repressor) MARLDKSKVINSALELLNEVGIEGLTTRKLAQKLGVEQPTLYWHVKNKRALLDALAIEMMDRHQTHYSPLEGESWQDFLRNNAKSCRRAVLSHRDGAKVCLGTRWTEQQYESAENMLAFLTQQGFSLENALYAVSAVRVFTLGAVLFDQESQVAKEERETPTTDSMPPLLRQAWELKDHQGAEPAFLFGLELIIAGLEKQLKRESGS	2.7
L8-3F01: library L8 chlorsulfuron repressor hit, parent for saturation mutagenesis (protein, Sulfonylurea responsive repressor, library L8 chlorsulfuron repressor hit, parent for saturation mutagenesis) MARLDKSKVINSALELLNEVGIEGLTTRKLAQKLGVEQPTLYWHVKNKRALLDALAIEMMDRHQTHYLPLEGESWQDFLRNNAKSCRRALLSHRDGAKVCLGTRWTEQQYETAENMLAFLTQQGFSLENALYAVSAVRVFTLGAVLFDQESQVAKEERETPTTDSMPPLLRQAWELKDHQGAEPAFLFGLELIIAGLEKQLKRESGS	3.0
L8-2F12 (protein, Sulfonylurea responsive repressor) MARLDKSKVINSALELLNEVGIEGLTTRKLAQKLGVEQPTLYWHVKNKRALLDALAIEMMDRHQTHYSPLEGESWQDFLRNNAKSCRNALLSHRDGAKVCLGTRWTEQQYESAENMLAFLTQQGFSLENALYALQAVRVFTLGWVLFDQESQVAKEERETPTTDSMPPLLRQAWELKDHQGAEPAFLFGLELIIRGLEKQLKSESGS	3.6

// data source = patent US20160152995A1
